method: Plasma pharmacokinetics and brain distribution after single IV, IP and oral administration
Type: in vivo
run-conditions: male, C57BL/6, mouse, in vivo, iv, 10 mg/kg, Plasma concentration, individual animal
Where a name gives a salt, the structure may show the parent alone.
observable: concentration at 12 hr (ng/mL)
Provide only the numeric value, understood in ng/mL.

Lookup: Look up concentration at 12 hr for this compound: Cc1nc2ccccn2c1-c1csc(Nc2ccc3c(c2)OC(F)(F)O3)n1 [Compound 16, hydrochloride]
Found: 0

----------
method: Plasma pharmacokinetics and brain distribution after single IV, IP and oral administration
Format: in vivo
run-conditions: male, C57BL/6, mouse, in vivo, iv, 10 mg/kg, Mean brain conc.
Where a name gives a salt, the structure may show the parent alone.
observable: concentration at 6 hr (ng/g)
Provide only the numeric value, understood in ng/g.

Lookup: Look up concentration at 6 hr for this compound: Cc1nc2ccccn2c1-c1csc(Nc2ccc3c(c2)OC(F)(F)O3)n1 [Compound 16, hydrochloride]
Found: 5.13
